Hey, just so you know, these numbers are from patent US8519123B2.

Listing: pIC50 of selected compounds
system: liver cancer cell line (Hepg2); experiment: In vitro cytotoxicity, MTT assay, 48 h continuous drug exposure; assay type: cell-based, human; settings: Hepg2 cells, 48 h exposure
pIC50: −log10 of the molar value.

{"compound": "COc1cccc2c1C(=O)c1c(O)c3c(c(O)c1C2=O)C[C@@](O)(C(=O)CO)C[C@@H]3O[C@H]1C[C@H](N)[C@H](O)[C@H](C)O1 [ADR, adiramycin]", "pIC50": 5.73}
{"compound": "COc1cc2c(cc1OCCCCCN1CCN(C(=O)c3nc(-c4ccccc4)n4ccccc34)CC1)N=C[C@@H]1CCCN1C2=O [7c]", "pIC50": 5.41}
